Source of measurements: paper PMC12621043

Property: ΔTm at 10 µM; scope: individual molecules
# system: MAP2K6A (Homo sapiens)
# Construct: purchased in-house DSF kinase panel (SGC-style construct names; the trailing letter is the construct ID)
# Sequence (P52564 53-314): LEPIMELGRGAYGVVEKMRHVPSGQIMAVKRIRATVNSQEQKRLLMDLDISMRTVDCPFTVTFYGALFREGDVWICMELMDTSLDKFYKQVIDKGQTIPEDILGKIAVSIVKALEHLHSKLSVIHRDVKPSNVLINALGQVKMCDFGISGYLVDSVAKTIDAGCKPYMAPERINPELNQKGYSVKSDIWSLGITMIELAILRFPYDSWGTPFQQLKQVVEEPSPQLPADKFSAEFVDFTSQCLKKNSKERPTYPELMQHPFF
# assay_name: DSF Tm panel
# Format: binding
# setup_conditions: 10 μM compound
State just the number; it will be interpreted in °C.

Here is how some molecules turned out for ΔTm at 10 µM.
>>> print(df.to_string())
                                   molecule  unit_of_measurement  data_value
0  O=C(NCc1ccc(Cl)cc1)Nc1ccc2cc1OCCOCCNc1ccn3ncc-2c3n1 [compound 19]                   °C         1.1
1  COc1cccc(CNC(=O)Nc2ccc3cc2OCCOCCNc2ccn4ncc-3c4n2)c1 [compound 30]                   °C         0.9
2  O=C(NCc1cccc(Cl)c1)Nc1ccc2cc1OCCOCCNc1ccn3ncc-2c3n1 [compound 18]                   °C         1.2
3  COc1ccccc1CNC(=O)Nc1ccc2cc1OCCOCCNc1ccn3ncc-2c3n1 [compound 29]                   °C         0.7
4  CN1CCN(C(=O)Nc2ccc3cc2OCCOCCNc2ccn4ncc-3c4n2)CC1 [compound 35]                   °C         0.4

ΔTm at 10 µM on MAP2K6A (Homo sapiens) for COc1ccc(CNC(=O)Nc2ccc3cc2OCCOCCNc2ccn4ncc-3c4n2)cc1F [compound 32] is 1

ΔTm at 10 µM on MAP2K6A (Homo sapiens) for Cc1cc(Br)ccc1CNC(=O)Nc1ccc2cc1OCCOCCNc1ccn3ncc-2c3n1 [compound 24] is 0.6

ΔTm at 10 µM on MAP2K6A (Homo sapiens) for COc1cc(CNC(=O)Nc2ccc3cc2OCCOCCNc2ccn4ncc-3c4n2)ccc1F [compound 33] is 1.1

ΔTm at 10 µM on MAP2K6A (Homo sapiens) for COc1ccc(CNC(=O)Nc2ccc3cc2OCCOCCNc2ccn4ncc-3c4n2)cc1 [compound 31] is 1.2

ΔTm at 10 µM on MAP2K6A (Homo sapiens) for O=C(NCc1ccc(Cl)cc1Cl)Nc1ccc2cc1OCCOCCNc1ccn3ncc-2c3n1 [compound 20] is 1.1

---

# system: CAMK2BA (Homo sapiens, UniProt Q13554)
# Construct: purchased in-house DSF kinase panel (SGC-style construct names; the trailing letter is the construct ID)
# Sequence (Q13554 11-303): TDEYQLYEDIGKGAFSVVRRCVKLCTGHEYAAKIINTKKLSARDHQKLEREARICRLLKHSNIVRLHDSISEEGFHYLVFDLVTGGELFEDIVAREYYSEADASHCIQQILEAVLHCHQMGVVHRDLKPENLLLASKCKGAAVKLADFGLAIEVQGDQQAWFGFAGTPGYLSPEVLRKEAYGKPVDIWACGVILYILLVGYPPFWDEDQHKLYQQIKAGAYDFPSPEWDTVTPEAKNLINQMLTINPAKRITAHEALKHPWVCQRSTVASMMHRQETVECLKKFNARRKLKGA
# assay_name: DSF Tm panel
# Assay type: binding
# setup_conditions: 10 μM compound
property_label: ΔTm at 10 µM (°C)
State just the number; it will be interpreted in °C.

In [3]: df
Out[3]:
                                   compound  data_value
0  O=C(NCc1ccccc1)Nc1ccc2cc1OCCOCCNc1ccn3ncc-2c3n1 [compound 16]         1.3
1  O=C(NCc1cccc(Cl)c1)Nc1ccc2cc1OCCOCCNc1ccn3ncc-2c3n1 [compound 18]         0.8
2  O=C(NCc1ccc(Cl)cc1Cl)Nc1ccc2cc1OCCOCCNc1ccn3ncc-2c3n1 [compound 20]         1.6
3  Cc1cc(Br)ccc1CNC(=O)Nc1ccc2cc1OCCOCCNc1ccn3ncc-2c3n1 [compound 24]        -0.2

Sample O=C(NCc1ccc(Cl)cc1F)Nc1ccc2cc1OCCOCCNc1ccn3ncc-2c3n1 [compound 21] ; ΔTm at 10 µM observed: 0.8

Sample COc1ccc(CNC(=O)Nc2ccc3cc2OCCOCCNc2ccn4ncc-3c4n2)cc1 [compound 31] ; ΔTm at 10 µM observed: -0.1

Sample COc1ccc(CNC(=O)Nc2ccc3cc2OCCOCCNc2ccn4ncc-3c4n2)cc1F [compound 32] ; ΔTm at 10 µM observed: 0

---

# system: NQO2A (Homo sapiens, UniProt P16083)
# Construct: purchased in-house DSF kinase panel (SGC-style construct names; the trailing letter is the construct ID)
# Sequence (P16083 whole entry): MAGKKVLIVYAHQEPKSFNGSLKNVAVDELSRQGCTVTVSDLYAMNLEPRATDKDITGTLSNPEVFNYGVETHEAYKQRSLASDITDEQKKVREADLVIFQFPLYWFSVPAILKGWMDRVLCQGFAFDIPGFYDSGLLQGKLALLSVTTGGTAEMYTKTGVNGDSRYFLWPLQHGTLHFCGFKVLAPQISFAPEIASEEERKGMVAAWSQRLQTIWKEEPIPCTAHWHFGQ
# assay_name: DSF Tm panel
# Type: binding
# setup_conditions: 10 μM compound
property_label: ΔTm at 10 µM (°C)
State just the number; it will be interpreted in °C.

>>> df
                            chemical_string                                system  data_value
0  COc1cccc(CNC(=O)Nc2ccc3cc2OCCOCCNc2ccn4ncc-3c4n2)c1  NQO2A (Homo sapiens, UniProt P16083)        -0.5

Sample `O=C(NCc1ccccc1C(F)(F)F)Nc1ccc2cc1OCCOCCNc1ccn3ncc-2c3n1` ; ΔTm at 10 µM observed: -4.1

---

# system: CAMK1DA (Homo sapiens)
# Construct: purchased in-house DSF kinase panel (SGC-style construct names; the trailing letter is the construct ID)
# Sequence (Q8IU85 whole entry): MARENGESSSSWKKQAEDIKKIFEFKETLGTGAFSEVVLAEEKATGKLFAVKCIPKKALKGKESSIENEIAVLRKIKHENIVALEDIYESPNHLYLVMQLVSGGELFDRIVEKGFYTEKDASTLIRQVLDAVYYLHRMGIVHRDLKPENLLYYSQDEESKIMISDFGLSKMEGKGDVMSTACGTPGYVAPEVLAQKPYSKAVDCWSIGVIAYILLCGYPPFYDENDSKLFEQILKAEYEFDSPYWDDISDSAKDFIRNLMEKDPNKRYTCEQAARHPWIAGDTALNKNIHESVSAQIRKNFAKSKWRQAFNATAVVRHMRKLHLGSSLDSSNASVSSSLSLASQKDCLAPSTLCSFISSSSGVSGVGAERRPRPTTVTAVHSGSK
# assay_name: DSF Tm panel
# Type: binding
# setup_conditions: 10 μM compound
property_label: ΔTm at 10 µM
Please provide the amount together with its unit, number first.

In [3]: df
Out[3]:
                            chemical_string                  system  property_label  data_value
0  CN1CCN(C(=O)Nc2ccc3cc2OCCOCCNc2ccn4ncc-3c4n2)CC1  CAMK1DA (Homo sapiens)    ΔTm at 10 µM     -1.2 °C
1  O=C(NCc1ccc(Cl)cc1Cl)Nc1ccc2cc1OCCOCCNc1ccn3ncc-2c3n1  CAMK1DA (Homo sapiens)    ΔTm at 10 µM        1 °C
2  C[C@H](NC(=O)Nc1ccc2cc1OCCOCCNc1ccn3ncc-2c3n1)c1ccccc1  CAMK1DA (Homo sapiens)    ΔTm at 10 µM      0.8 °C
3  COc1ccccc1CNC(=O)Nc1ccc2cc1OCCOCCNc1ccn3ncc-2c3n1  CAMK1DA (Homo sapiens)    ΔTm at 10 µM      0.4 °C
4  O=C(NCc1ccc(Cl)cc1F)Nc1ccc2cc1OCCOCCNc1ccn3ncc-2c3n1  CAMK1DA (Homo sapiens)    ΔTm at 10 µM      0.8 °C
5  COc1cccc(CNC(=O)Nc2ccc3cc2OCCOCCNc2ccn4ncc-3c4n2)c1  CAMK1DA (Homo sapiens)    ΔTm at 10 µM      0.4 °C

Sample `O=C(NCc1ccccc1)Nc1ccc2cc1OCCOCCNc1ccn3ncc-2c3n1` ; ΔTm at 10 µM observed: 0 °C

Sample `Cc1cc(Cl)ccc1CNC(=O)Nc1ccc2cc1OCCOCCNc1ccn3ncc-2c3n1` ; ΔTm at 10 µM observed: 2.1 °C

Sample `O=C(NCc1ccccc1C(F)(F)F)Nc1ccc2cc1OCCOCCNc1ccn3ncc-2c3n1` ; ΔTm at 10 µM observed: 1.7 °C

Sample `O=C(NCc1ccc(C(F)(F)F)cc1)Nc1ccc2cc1OCCOCCNc1ccn3ncc-2c3n1` ; ΔTm at 10 µM observed: 2.1 °C

---

# system: AKT3A (Homo sapiens, UniProt Q9Y243)
# Construct: purchased in-house DSF kinase panel (SGC-style construct names; the trailing letter is the construct ID)
# Sequence (Q9Y243 148-479): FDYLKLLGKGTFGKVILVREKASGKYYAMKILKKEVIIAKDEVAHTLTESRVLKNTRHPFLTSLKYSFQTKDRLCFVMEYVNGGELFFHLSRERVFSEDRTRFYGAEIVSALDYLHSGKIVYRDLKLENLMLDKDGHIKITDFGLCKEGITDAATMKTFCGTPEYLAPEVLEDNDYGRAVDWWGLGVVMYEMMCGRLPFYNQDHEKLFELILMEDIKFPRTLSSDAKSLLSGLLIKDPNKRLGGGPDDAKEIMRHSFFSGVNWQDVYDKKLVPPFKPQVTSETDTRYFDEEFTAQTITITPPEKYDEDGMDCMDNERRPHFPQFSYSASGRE
# assay_name: DSF Tm panel
# Type: binding
# setup_conditions: 10 μM compound
Parameter threshold = 0.2 °C. Response is Yes when ΔTm at 10 µM meets or exceeds it, else No.

Answered examples (8):
>>> print(df.to_string())
                            chemical_string                                system  class
0  COc1ccccc1CNC(=O)Nc1ccc2cc1OCCOCCNc1ccn3ncc-2c3n1  AKT3A (Homo sapiens, UniProt Q9Y243)    Yes
1  COc1ccc(CNC(=O)Nc2ccc3cc2OCCOCCNc2ccn4ncc-3c4n2)cc1F  AKT3A (Homo sapiens, UniProt Q9Y243)    Yes
2  O=C(NCc1ccccc1Cl)Nc1ccc2cc1OCCOCCNc1ccn3ncc-2c3n1  AKT3A (Homo sapiens, UniProt Q9Y243)     No
3  Cc1cc(Cl)ccc1CNC(=O)Nc1ccc2cc1OCCOCCNc1ccn3ncc-2c3n1  AKT3A (Homo sapiens, UniProt Q9Y243)    Yes
4  O=C(NCc1ccc(Cl)cc1Cl)Nc1ccc2cc1OCCOCCNc1ccn3ncc-2c3n1  AKT3A (Homo sapiens, UniProt Q9Y243)    Yes
5  O=C(NCc1cccc(Cl)c1)Nc1ccc2cc1OCCOCCNc1ccn3ncc-2c3n1  AKT3A (Homo sapiens, UniProt Q9Y243)     No
6  O=C(NCc1ccccc1)Nc1ccc2cc1OCCOCCNc1ccn3ncc-2c3n1  AKT3A (Homo sapiens, UniProt Q9Y243)     No
7  COc1cc(CNC(=O)Nc2ccc3cc2OCCOCCNc2ccn4ncc-3c4n2)ccc1F  AKT3A (Homo sapiens, UniProt Q9Y243)    Yes

For this compound, is measured ΔTm at 10 µM 0.2 °C or higher? `O=C(NCc1ccc(Cl)cc1F)Nc1ccc2cc1OCCOCCNc1ccn3ncc-2c3n1` No

For this compound, is measured ΔTm at 10 µM 0.2 °C or higher? `O=C(NCc1ccc(Cl)cc1)Nc1ccc2cc1OCCOCCNc1ccn3ncc-2c3n1` No

For this compound, is measured ΔTm at 10 µM 0.2 °C or higher? `C[C@H](NC(=O)Nc1ccc2cc1OCCOCCNc1ccn3ncc-2c3n1)c1ccccc1` Yes

For this compound, is measured ΔTm at 10 µM 0.2 °C or higher? `Cc1cc(Br)ccc1CNC(=O)Nc1ccc2cc1OCCOCCNc1ccn3ncc-2c3n1` Yes

For this compound, is measured ΔTm at 10 µM 0.2 °C or higher? `COc1ccc(CNC(=O)Nc2ccc3cc2OCCOCCNc2ccn4ncc-3c4n2)cc1` Yes

For this compound, is measured ΔTm at 10 µM 0.2 °C or higher? `O=C(NCc1ccc(C(F)(F)F)cc1)Nc1ccc2cc1OCCOCCNc1ccn3ncc-2c3n1` Yes

For this compound, is measured ΔTm at 10 µM 0.2 °C or higher? `Cc1ccc(F)cc1CNC(=O)Nc1ccc2cc1OCCOCCNc1ccn3ncc-2c3n1` Yes

For this compound, is measured ΔTm at 10 µM 0.2 °C or higher? `CN1CCN(C(=O)Nc2ccc3cc2OCCOCCNc2ccn4ncc-3c4n2)CC1` No

For this compound, is measured ΔTm at 10 µM 0.2 °C or higher? `O=C(NCc1ccccc1C(F)(F)F)Nc1ccc2cc1OCCOCCNc1ccn3ncc-2c3n1` No
